These measurements were taken from paper PMC3417418.

Molecular target: T1, CXCR3 (Homo sapiens, UniProt P49682)
T1 chain: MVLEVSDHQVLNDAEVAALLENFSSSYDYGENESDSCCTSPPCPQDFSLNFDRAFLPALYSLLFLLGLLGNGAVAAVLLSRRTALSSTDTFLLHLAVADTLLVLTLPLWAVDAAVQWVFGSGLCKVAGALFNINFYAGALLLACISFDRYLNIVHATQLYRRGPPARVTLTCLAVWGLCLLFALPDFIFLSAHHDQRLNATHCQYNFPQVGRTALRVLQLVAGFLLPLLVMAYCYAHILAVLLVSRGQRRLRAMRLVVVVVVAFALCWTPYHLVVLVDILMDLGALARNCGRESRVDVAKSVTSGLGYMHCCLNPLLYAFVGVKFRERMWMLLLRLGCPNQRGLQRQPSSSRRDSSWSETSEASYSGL
Test: homologous competition 125I radioligand binding on L1.2 cells
Assay readout: Kd (pM)
Please reply with the bare figure in pM and do not write the unit itself.

I'd like to know its Kd. The binder in question is CXCL11 (protein) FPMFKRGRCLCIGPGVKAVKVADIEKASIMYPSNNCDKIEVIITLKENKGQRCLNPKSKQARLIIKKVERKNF
400
